// provenance: patent US20250019370A1

Test: Pharmacokinetic study Experiment #1, oral administration in rats
Format: in vivo, rat
Details: rat, in vivo, 50 mg EqEYP001/Kg, male rats, aqueous formulation
quantity-kind: Cmax (ng/mL)
Unit ng/mL implied. Number only.

Cmax lookup needed for O=C(O)c1cc2c(Cl)c(N3CCN(S(=O)(=O)c4c(Cl)cccc4Cl)CC3)ccc2o1 [EYP001, reference compound] , thanks.
6990

---

Experiment: Pharmacokinetic study Experiment #3, oral administration in rats
Assay type: in vivo, rat
Conditions: rat, plasma, 10 mg EqEYP001/Kg, male rats, aqueous formulation, read-out: Mean AUC0-24
quantity-kind: AUC(0-t)
Report field: quantity (unit follows the number).

Would you mind telling me what AUC(0-t) value was observed for O=C(O)c1cc2c(Cl)c(N3CCN(S(=O)(=O)c4c(Cl)cccc4Cl)CC3)ccc2o1 [EYP001, reference compound] ?
3970 ng·h/mL

---

Assay: Pharmacokinetic study Experiment #2, oral administration in rats
Assay type: in vivo, rat
Conditions: rat, in vivo, 50 mg EqEYP001/Kg, male rats, aqueous formulation, read-out: Mean AUC0-24
quantity-kind: AUC(0-t) (ng·h/mL)
Express your answer in ng·h/mL, writing the number without its unit.

// query AUC(0-t) value for entry O=C(O)c1cc2c(Cl)c(N3CCN(S(=O)(=O)c4c(Cl)cccc4Cl)CC3)ccc2o1 [EYP001, reference compound]
29000

---

Assay: Solubility kinetics in FaSSIF medium
Format: physicochemical
Conditions: pH given with the soluble fraction, after 24 h
quantity-kind: pH
Number only, no unit.

Data request, read-out pH, for O=C(O)c1cc2c(Cl)c(N3CCN(S(=O)(=O)c4c(Cl)cccc4Cl)CC3)ccc2o1.c1ccc(CCNCc2ccccc2)cc1 [EYP001 Benethamine salt (Polymorph II)]
6.5

# iterate: NC1CCCCC1.O=C(O)c1cc2c(Cl)c(N3CCN(S(=O)(=O)c4c(Cl)cccc4Cl)CC3)ccc2o1
6.5

Now consider NCCCC[C@H](N)C(=O)O.O=C(O)c1cc2c(Cl)c(N3CCN(S(=O)(=O)c4c(Cl)cccc4Cl)CC3)ccc2o1 [EYP001 L-lysine salt Form I] .
6.6

Then O=C(O)c1cc2c(Cl)c(N3CCN(S(=O)(=O)c4c(Cl)cccc4Cl)CC3)ccc2o1 [EYP001, reference compound] ?
6.4

Thanks! And O=C(O)c1cc2c(Cl)c(N3CCN(S(=O)(=O)c4c(Cl)cccc4Cl)CC3)ccc2o1.c1ccc(CCNCc2ccccc2)cc1 [EYP001 Benethamine salt (Polymorph I)] ?
6.6

Now try C1COCCN1.O=C(O)c1cc2c(Cl)c(N3CCN(S(=O)(=O)c4c(Cl)cccc4Cl)CC3)ccc2o1 [EYP001 Morpholine salt, reference compound] .
6.5

---

Test: Pharmacokinetic study Experiment #3, oral administration in rats
Type: in vivo, rat
Settings: rat, plasma, 10 mg EqEYP001/Kg, male rats, aqueous formulation
quantity-kind: Cmax (ng/mL)
Give the value, in units of ng/mL, as a plain number.

Can you look up the measured Cmax of O=C(O)c1cc2c(Cl)c(N3CCN(S(=O)(=O)c4c(Cl)cccc4Cl)CC3)ccc2o1 [EYP001, reference compound] for me?
1350

---

Assay: Pharmacokinetic study Experiment #2, oral administration in rats
Assay type: in vivo, rat
Details: rat, in vivo, 50 mg EqEYP001/Kg, male rats, aqueous formulation
quantity-kind: Cmax (ng/mL)
Give the quantity in ng/mL, number only.

Looking for the measured Cmax of O=C(O)c1cc2c(Cl)c(N3CCN(S(=O)(=O)c4c(Cl)cccc4Cl)CC3)ccc2o1 [EYP001, reference compound] , can you help?
5580
